# assay: Tmax in fasted human at 800 mg, po every 24 hrs measured on day 8
# Type: ADME, organism-based
# condition.set: in vivo
reported.metric: Tmax (h)
Give bare numbers, in h.

Query: Need Tmax of `O=C(CSc1nnc(Br)n1-c1ccc(C2CC2)c2ccccc12)Nc1ccc(C(=O)O)cc1Cl` , thanks.
Response: 3

* * *

# assay: Tmax in fasted human at 400 mg, po every 12 hrs measured on day 8
# Assay type: ADME, organism-based
# condition.set: in vivo
reported.metric: Tmax (h)
One number for each entry, in h.

Query: Need Tmax of `O=C(CSc1nnc(Br)n1-c1ccc(C2CC2)c2ccccc12)Nc1ccc(C(=O)O)cc1Cl` , thanks.
Response: 1.5

* * *

# assay: AUC (24 hrs) in fasted human at 1000 mg, po every 24 hrs measured on day 8
# Type: ADME, organism-based
# Set-up: dose 1000 mg, time < 24 hr, route oral
# condition.set: plasma
reported.metric: AUC at 24 h (ng·h/mL)
Give bare numbers, in ng·h/mL.

Query: Need AUC at 24 h of `O=C(CSc1nnc(Br)n1-c1ccc(C2CC2)c2ccccc12)Nc1ccc(C(=O)O)cc1Cl` , thanks.
Response: 17400

* * *

# assay: Tmax in fasted human plasma at 600 mg
# Format: ADME, organism-based
reported.metric: Tmax (h)
Answers are plain numbers, in h.

Query: Need Tmax of `O=C(CSc1nnc(Br)n1-c1ccc(C2CC2)c2ccccc12)Nc1ccc(C(=O)O)cc1Cl` , thanks.
Response: 4.92

* * *

# assay: Cmax in human plasma at 300 mg administered as multiple doses, BID
# Assay type: ADME, organism-based
# Parameters: dose 300 mg
reported.metric: Cmax (ng/mL)
Numbers only, in ng/mL.

Query: Need Cmax of `O=C(CSc1nnc(Br)n1-c1ccc(C2CC2)c2ccccc12)Nc1ccc(C(=O)O)cc1Cl` , thanks.
Response: 667

* * *

# assay: Drug concentration at steady state in fasted human plasma at 400 mg, po every 12 hrs measured on day 8
# Format: ADME, organism-based
# condition.set: read-out: Drug uptake
reported.metric: concentration at 12 h (ng/mL)
Answers are plain numbers, in ng/mL.

Query: Need concentration at 12 h of `O=C(CSc1nnc(Br)n1-c1ccc(C2CC2)c2ccccc12)Nc1ccc(C(=O)O)cc1Cl` , thanks.
Response: 505

* * *

# assay: Renal clearance in rhesus monkey
# Assay type: ADME, organism-based, Macaca mulatta, Kidney
# condition.set: in vivo, read-out: CL_renal
reported.metric: CL renal

Query: Need CL renal of `O=C(CSc1nnc(Br)n1-c1ccc(C2CC2)c2ccccc12)Nc1ccc(C(=O)O)cc1Cl` , thanks.
Response: ≤ 1 mL/min

* * *

# assay: Renal clearance in dog
# Type: ADME, organism-based, Canis lupus familiaris, Kidney
# condition.set: in vivo, read-out: CL_renal
reported.metric: CL renal

Query: Need CL renal of `O=C(CSc1nnc(Br)n1-c1ccc(C2CC2)c2ccccc12)Nc1ccc(C(=O)O)cc1Cl` , thanks.
Response: ≤ 1 mL/min

* * *

# assay: Tmax in fasted human at 600 mg, po every 24 hrs measured on day 8
# Type: ADME, organism-based
# condition.set: in vivo
reported.metric: Tmax (h)
Answers are plain numbers, in h.

Query: Need Tmax of `O=C(CSc1nnc(Br)n1-c1ccc(C2CC2)c2ccccc12)Nc1ccc(C(=O)O)cc1Cl` , thanks.
Response: 2

Cited source for all entries: ChEMBL document CHEMBL1629701
